Here, each record is paired with measured yeast fitness data.
B1: tRNA (parent)
chain: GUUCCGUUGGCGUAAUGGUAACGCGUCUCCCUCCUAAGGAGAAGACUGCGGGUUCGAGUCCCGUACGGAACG

Variants of: B1
procedure-text: yeast fitness relative to wild type (ratio to wild type); higher = fitter; tRNA-Arg(CCU), competitive growth, 37 C, YPD
This sample holds only a part of the variants without activity.
endpoint: yeast fitness

>>> observed_result("GCUCCCUUGGCGUAAUGGUAACGCGUCUCCCUCCUAAGGAGAAGACUGCGGGUUCGAGUCCCGUACGGAACG [U2C G6C]")
0.861
>>> observed_result("GUUCUGUUGGCGUAAUGGUAACGCGUCCCCCUCCUAAGGAGAAGAAUGCGGGUUCGAGUCCCGUAGGGAACG [C5U U28C C46A C66G]")
0.534
>>> observed_result("GUUCCGUUGGCGUAAUGGUAACGCGUCUCCCUCGUAAGGAGAAGACUGCGGGUUCGAGUCCCGAACGGAACG [C34G U64A]")
0.654
>>> observed_result("GUUCCGUUGGCGUCAUGGUAACGCGUCUCCCUCCUAAGGAGAAGACUGCGGGUUCGCGUCCCGUACGGAACG [A14C A57C]")
0.516
>>> observed_result("GUUCCGUUGGCGUAAUGGUAACGCGUACGCCUCCUAAGGAGAAGACUGCGGGUUCGAGUCCCGUACGGAACG [C27A U28C C29G]")
0.633
>>> observed_result("GUUCAGUUGGCGUAAUGGUAACGCGUCUCCCUCCUAACGAGAAGACUGCGGGUUCGAGUCCCGUACGGAACG [C5A G38C]")
0.732
>>> observed_result("GUUCCGUUGGCGUAAUGGUAACGCCUCCCCCUCCUAAGGAGAAGACUGCGGGUUCGAGUCCCGUACGGACCG [G25C U28C A70C]")
0.563
>>> observed_result("GUUCCGUUGGCGUAAUGGUAACGCGUCUCCCUCCUAAGGAGAAGACUGCGGGUGCGAAUCCCGUACGGAACG [U54G G58A]")
0.544
>>> observed_result("GUUCCGUUGGCGUAAUGGUAACGGGCCUCCUUCCUAAGGAGAAGACUGCGGGUUCGAGUCCCGUACGGAACG [C24G U26C C31U]")
0.747
>>> observed_result("GUUCCGUUGGCAUAAGGGUAACGCGUCUCCCUCCUAAGGAGAAGACUGUGGGUUCGAGUCCCAUACGGAACG [G12A U16G C49U G63A]")
0.705
>>> observed_result("GUUCCGUUGGCGUAAAGGUAUCGCGUCUCCCUCCUAAGGAGUAGACUGCGGGUUCGAGUCCCGUACGGAACG [U16A A21U A42U]")
0.591
>>> observed_result("GUUCCGUUGGCGUAAUGGUUACGCGUCUCCUUCCUAAGGAGAAGACUGCGGGUUCGAGUCCUGUACGGAACG [A20U C31U C62U]")
0.826
>>> observed_result("GUUCCGUUGGCGUAAUGGUAACGCGUCUCCCCCCUAAGGAGAAGACUGCGGGUUUGAGUCCUGUACGGAACG [U32C C55U C62U]")
0.653
>>> observed_result("GUUCCGUUGGCGUAAUGGUAACGCGUCUCCCUCCUAAGGAGAGGACUGCGGGUUAGAGUCCCGUACGGAACG [A43G C55A]")
0.599
>>> observed_result("GUUCCGUUGGCGUAAUGGUAACGCGUCUCCUUCCUAAGGAGAAGACUGUGGGUUCGAGUCCCGUACGGUACG [C31U C49U A69U]")
0.889
>>> observed_result("GUUCCGUUGGCGUAAUGGUAACGCGUCUCCCUCCUAAGGAGAAGACUAAGGGUUCGAGUCCCGUACGGAACG [G48A C49A]")
0.969
>>> observed_result("GUUCCGUUGGCGUAAUGGUAAAGCGUCUCCCUCCUAAGGAGAAGACUGCCGGUUCGAGUCCCGUACGGAACG [C22A G50C]")
0.627
>>> observed_result("GUUCCGUUGGCGUAAUGAUAACGCGUCUCGCUCCUAAGGAGAACACUGCGGGUUCGAGUCCCGUACGGAACG [G18A C30G G44C]")
0.646
>>> observed_result("GUUCCAUUGGCGUAAUGGUAACGCGUCCCCCUCCUAAGGAGAAGACUGCGGGUUCGAGUCUCGUACGGAACG [G6A U28C C61U]")
0.628
>>> observed_result("GUUCCGUUGGCGUAAUGGUAACGCGUCUCCCUCCUGAGGAGAAGUCUGCGGGUUCGAGUCCCGUACGGAUCG [A36G A45U A70U]")
0.708
>>> observed_result("GUUCCGUUGGCGUAAAGGUAACGCGUCUCCCCCCUAAGGAGUAGACUGCGGGUUCGAGUCCCGUACGGAACG [U16A U32C A42U]")
0.637
>>> observed_result("GUUCCGUUGGCGUAAUGGUAACGCGUCUCCCUCCUGAGGAGAAGACUGCGGGUUCGAGUCCCGCACGGAACG [A36G U64C]")
0.78
>>> observed_result("GUUCCGUUGGCGUAAUGGUAACGCGUCUCCCUCCUAAGGAGAAGACUGCGGGUUCAAGUCCCGUACGGCACG [G56A A69C]")
1.04
>>> observed_result("GUUCCGUUGGCGUAAUGGUAACGCGUCUCCCUCCUAAGGCGUAGACUGCGGGUUCGAGUCCCGUACGGAACG [A40C A42U]")
0.782
>>> observed_result("GUUCCGCUGGCGUAAUGGUAACGCGUCUCCCUCCUAAGGGGACGACUGCGGGUUCGAGUCCCGUACGGAACG [U7C A40G A43C]")
0.77
>>> observed_result("GUUCCGUUGGCGUCAUGGUAACGCGUCUUCCUGCUAAGGAGAAGACUGCGGGUUCGAGUCCCGUACGGAACG [A14C C29U C33G]")
0.527
>>> observed_result("GUUCCGUUGGCGUAAUGGUUACGCGUCUCCCUCCUAAGGAGAUGACUGAGGGUUCGACUCCCGUACGGAACG [A20U A43U C49A G58C]")
0.535
>>> observed_result("GUUCCGUUGGCCUAAUGGUUACGCGUCUCCCUUCUAAGGAGAAGACUGCGGGUUCGAGUCCCGUACGGAACG [G12C A20U C33U]")
0.555
>>> observed_result("GUUCCGUUGGUGUAAUGGUAACGCGUCUCCCUCCUAAGCAGAAGACUGCGGGUUCGAGUCCCGUACGGAACG [C11U G39C]")
0.68
>>> observed_result("GUUCCGUUGGCGUAAUGGUAACGCGUCUCCCUCCUAAGGAGAAGUCUGCGGGUUCGAGUCUCGUACGGAACG [A45U C61U]")
0.974
